- system tested: UniProtKB P03372
- Sequence (P03372 whole entry): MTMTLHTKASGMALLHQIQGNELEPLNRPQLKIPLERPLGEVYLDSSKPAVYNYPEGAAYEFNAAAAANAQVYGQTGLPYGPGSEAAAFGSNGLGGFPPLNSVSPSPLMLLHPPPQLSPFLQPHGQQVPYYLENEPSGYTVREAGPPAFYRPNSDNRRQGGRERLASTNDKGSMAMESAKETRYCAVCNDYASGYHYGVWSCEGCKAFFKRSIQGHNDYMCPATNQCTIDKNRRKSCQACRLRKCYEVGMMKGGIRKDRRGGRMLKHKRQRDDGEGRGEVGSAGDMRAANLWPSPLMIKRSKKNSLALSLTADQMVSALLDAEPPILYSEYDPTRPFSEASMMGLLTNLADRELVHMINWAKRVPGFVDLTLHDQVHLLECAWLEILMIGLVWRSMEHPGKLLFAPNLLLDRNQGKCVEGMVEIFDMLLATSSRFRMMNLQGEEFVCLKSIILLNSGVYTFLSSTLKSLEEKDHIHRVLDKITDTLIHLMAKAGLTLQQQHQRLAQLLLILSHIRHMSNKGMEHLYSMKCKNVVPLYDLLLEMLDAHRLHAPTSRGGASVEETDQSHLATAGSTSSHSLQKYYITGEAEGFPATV
- protocol notes: In-cell western (ICW) ER degradation assay in T47D cells
- Format: cell-based
- test context: maximal ER degradation, 16 hrs
Structures can show the parent of a compound that is named as a salt.
measurement type: Dmax

Hello, I am looking for reported Dmax with UniProtKB P03372 for O=C1CCC(N2C(=O)c3cc4c(cc3C2=O)CN(C(=O)C2CCN(C3CCN(c5ccc([C@@H]6c7ccc(O)cc7OC[C@@H]6c6ccccc6)cc5)CC3)CC2)C4)C(=O)N1 (single isomer, unassigned) [Compound A79] . Could you help? ≥ 75%

Hello, I am looking for reported Dmax with UniProtKB P03372 for O=C1CCC(N2Cc3c(ccc4c3OCC43CCN(CC4CCC5(CC4)CN(c4ccc([C@@H]6c7ccc(O)cc7OC[C@@H]6c6ccccc6)cc4)C5)CC3)C2=O)C(=O)N1 (stereo partly drawn) [Compound A114] . Could you help? ≥ 75%

Hello, I am looking for reported Dmax with UniProtKB P03372 for O=C1CC[C@H](N2Cc3c(ccc4c3OC[C@H]3CN(CC5CCC6(CC5)CN(c5ccc([C@@H]7c8ccc(O)cc8OC[C@@H]7c7ccccc7)cc5)C6)CCN43)C2=O)C(=O)N1 (single isomer, unassigned) [Compound A115] . Could you help? ≥ 75%

Hello, I am looking for reported Dmax with UniProtKB P03372 for O=C1CC[C@H](N2Cc3cc4c(cc3C2)N2CCN(C[C@@H]3COC5(CCN(c6ccc([C@H]7c8ccc(O)cc8OC[C@H]7c7ccccc7)cc6F)CC5)C3)C[C@H]2CO4)C(=O)N1 [Compound A161] . Could you help? ≥ 75%

Hello, I am looking for reported Dmax with UniProtKB P03372 for O=C1CCC(Nc2ccc3c(c2)OC[C@H]2CN(CC4CCN(c5ccc([C@@H]6c7ccc(O)cc7OC[C@@H]6c6ccccc6)cc5)CC4)CCN32)C(=O)N1 (single isomer, unassigned) [Compound A91, hydrochloride] . Could you help? 50 to 75%

Hello, I am looking for reported Dmax with UniProtKB P03372 for COc1cc(N2CCC(CN3CCC(c4ccc(N[C@H]5CCC(=O)NC5=O)cc4)CC3)CC2)ccc1[C@@H]1c2ccc(O)cc2OC[C@@H]1c1ccccc1 (stereo in doubt) [Compound A149] . Could you help? 50 to 75%

Hello, I am looking for reported Dmax with UniProtKB P03372 for O=C1CCC(NC(=O)c2ccc(C3CCN(CC4CCN(c5ccc([C@H]6c7ccc(O)cc7OC[C@H]6c6ccccc6)cc5F)CC4)CC3)cn2)C(=O)N1 (single isomer, unassigned) [Compound A101] . Could you help? < 25%

Hello, I am looking for reported Dmax with UniProtKB P03372 for O=C1CC[C@@H](Nc2ccc(C3CCN(C[C@@H]4COC5(CCN(c6ccc([C@@H]7c8ccc(O)cc8OC[C@@H]7c7ccccc7)cc6)CC5)C4)CC3)c(F)c2)C(=O)N1 (single isomer, unassigned) [Compound A165] . Could you help? 50 to 75%

Hello, I am looking for reported Dmax with UniProtKB P03372 for Cn1c(=O)n(C2CCC(=O)NC2=O)c2ccc(C3CCN(CC4CC5(CCN(c6ccc([C@@H]7c8ccc(O)cc8OC[C@@H]7c7ccccc7)cc6)CC5)C4)CC3)cc21 (single isomer, unassigned) [Compound A73] . Could you help? 50 to 75%

Where these numbers come from: patent US20260000676A1
